# Measured on: Retinoic acid receptor RXR-alpha (Homo sapiens)
# Assay info: qHTS assay for small molecule antagonists of retinoid X receptor alpha signaling (AID 588546);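 further: cells stimulated with 9-cis-retinoic acid as agonist; on the % scale 0 is the no-effect control and ±100 the full control effect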
# Condition info: HEK293T RXRa-UAS-bla, beta-lactamase ratio, antagonist mode
# Text: NIH Chemical Genomics Center [NCGC] U.S. Environmental Protection Agency [EPA] National Institutes of Environmental Health Sciences [NIEHS] National Toxicology Program [NTP] NCGC Assay Overview The Retinoid X receptor (RXR), a nuclear hormone receptor is expressed in liver, spleen, placenta, epidermis, central nervous system. […]
Inconclusive results are not listed.
Measured endpoint: max response (%)

>  <Molecule>
c1ccc(P(c2ccccc2)c2ccccc2)cc1

>  <Measured on>
Retinoic acid receptor RXR-alpha (Homo sapiens)

>  <Experimental value>
14.4

$$$$
>  <Molecule>
Oc1cccc(Cl)c1Cl

>  <Measured on>
Retinoic acid receptor RXR-alpha (Homo sapiens)

>  <Experimental value>
-5.77

$$$$
>  <Molecule>
C=C(Cl)CCl

>  <Measured on>
Retinoic acid receptor RXR-alpha (Homo sapiens)

>  <Experimental value>
-0.897

$$$$
>  <Molecule>
NNC(N)=S

>  <Measured on>
Retinoic acid receptor RXR-alpha (Homo sapiens)

>  <Experimental value>
9.82

$$$$
>  <Molecule>
C=CCO

>  <Measured on>
Retinoic acid receptor RXR-alpha (Homo sapiens)

>  <Experimental value>
7.67

$$$$
>  <Molecule>
CC(C)CON=O

>  <Measured on>
Retinoic acid receptor RXR-alpha (Homo sapiens)

>  <Experimental value>
8.37

$$$$
>  <Molecule>
O=Cc1ccc2c(c1)OCO2

>  <Measured on>
Retinoic acid receptor RXR-alpha (Homo sapiens)

>  <Experimental value>
-12.4

$$$$
>  <Molecule>
ClC=CCl

>  <Measured on>
Retinoic acid receptor RXR-alpha (Homo sapiens)

>  <Experimental value>
-1.6

$$$$
>  <Molecule>
CC[N+](=O)[O-]

>  <Measured on>
Retinoic acid receptor RXR-alpha (Homo sapiens)

>  <Experimental value>
5.74

$$$$
>  <Molecule>
Cc1cc(-c2cc(C)c(N)c(C)c2)cc(C)c1N

>  <Measured on>
Retinoic acid receptor RXR-alpha (Homo sapiens)

>  <Experimental value>
-4.04

$$$$
>  <Molecule>
Nc1ccc(-c2ccc(N)cc2)cc1

>  <Measured on>
Retinoic acid receptor RXR-alpha (Homo sapiens)

>  <Experimental value>
0.312

$$$$
>  <Molecule>
CCCCCC[N+](=O)[O-]

>  <Measured on>
Retinoic acid receptor RXR-alpha (Homo sapiens)

>  <Experimental value>
-13.3

$$$$
>  <Molecule>
[O-][Cl+]O

>  <Measured on>
Retinoic acid receptor RXR-alpha (Homo sapiens)

>  <Experimental value>
22.2

$$$$
>  <Molecule>
[N-]=[N+]=[N-]

>  <Measured on>
Retinoic acid receptor RXR-alpha (Homo sapiens)

>  <Experimental value>
13.8

$$$$
>  <Molecule>
O=NN1CCCCC1

>  <Measured on>
Retinoic acid receptor RXR-alpha (Homo sapiens)

>  <Experimental value>
14.4

$$$$
>  <Molecule>
BrCC(Br)(Br)Br

>  <Measured on>
Retinoic acid receptor RXR-alpha (Homo sapiens)

>  <Experimental value>
23.1

$$$$
>  <Molecule>
CCOS(C)(=O)=O

>  <Measured on>
Retinoic acid receptor RXR-alpha (Homo sapiens)

>  <Experimental value>
-0.383

$$$$
>  <Molecule>
ClC(Br)Br

>  <Measured on>
Retinoic acid receptor RXR-alpha (Homo sapiens)

>  <Experimental value>
0.0478

$$$$
>  <Molecule>
Clc1ccc(C(Cl)(Cl)Cl)cc1Cl

>  <Measured on>
Retinoic acid receptor RXR-alpha (Homo sapiens)

>  <Experimental value>
-3.13

$$$$
>  <Molecule>
O=C(O)C(Cl)Br (configuration not stated)

>  <Measured on>
Retinoic acid receptor RXR-alpha (Homo sapiens)

>  <Experimental value>
0.341

$$$$
>  <Molecule>
Nc1ccc(-c2ccccc2)cc1

>  <Measured on>
Retinoic acid receptor RXR-alpha (Homo sapiens)

>  <Experimental value>
-7.2

$$$$
>  <Molecule>
CN(C)c1ccc(N(C)C)cc1

>  <Measured on>
Retinoic acid receptor RXR-alpha (Homo sapiens)

>  <Experimental value>
17.1

$$$$
>  <Molecule>
CC(C)Br

>  <Measured on>
Retinoic acid receptor RXR-alpha (Homo sapiens)

>  <Experimental value>
-3.19

$$$$
>  <Molecule>
O=[N+]([O-])c1cccc(O)c1

>  <Measured on>
Retinoic acid receptor RXR-alpha (Homo sapiens)

>  <Experimental value>
-5.97

$$$$
>  <Molecule>
ClCC(Br)CBr (configuration not stated)

>  <Measured on>
Retinoic acid receptor RXR-alpha (Homo sapiens)

>  <Experimental value>
13.4

$$$$
>  <Molecule>
c1ccc(N=NNc2ccccc2)cc1

>  <Measured on>
Retinoic acid receptor RXR-alpha (Homo sapiens)

>  <Experimental value>
-17.2

$$$$
>  <Molecule>
FC(Cl)(Cl)Cl

>  <Measured on>
Retinoic acid receptor RXR-alpha (Homo sapiens)

>  <Experimental value>
-1.5

$$$$
>  <Molecule>
COc1c(C(C)(C)C)cc([N+](=O)[O-])c(C)c1[N+](=O)[O-]

>  <Measured on>
Retinoic acid receptor RXR-alpha (Homo sapiens)

>  <Experimental value>
-14.3

$$$$
>  <Molecule>
CCCCOCC1CO1 (configuration not stated)

>  <Measured on>
Retinoic acid receptor RXR-alpha (Homo sapiens)

>  <Experimental value>
20.3

$$$$
>  <Molecule>
N#CC(Br)Br

>  <Measured on>
Retinoic acid receptor RXR-alpha (Homo sapiens)

>  <Experimental value>
18.7

$$$$
>  <Molecule>
Clc1ccc(C(Cl)(Cl)Cl)c(Cl)c1

>  <Measured on>
Retinoic acid receptor RXR-alpha (Homo sapiens)

>  <Experimental value>
8.02

$$$$
>  <Molecule>
O=C(O)CBr

>  <Measured on>
Retinoic acid receptor RXR-alpha (Homo sapiens)

>  <Experimental value>
-0.759

$$$$

The measured values listed here are drawn from PubChem BioAssay (NCATS).
